Where do these numbers come from? They come from patent US20250313629A1.

For each record, write down the corresponding percentage of Lag3 positive cells.
Molecular target: T1, cynomolgus Lag3 on cells (HEK293F cells transiently transfected with cyno-LAG-3); activated cynomolgus PBMC/T … (cynomolgus)
T1 construct: whole, on cells
Test: flow cytometry on CD3/CD28-activated cynomolgus PBMC, antibody at 10 ug/ml
Entry rule: numbers only, all in %.

Return value of percentage of Lag3 positive cells for input MDX25F7 (25F7) (antibody, V domains shown, also called Medarex 25F7) VH: QVQLQQWGAGLLKPSETLSLTCAVYGGSFSDYYWNWIRQPPGKGLEWIGEINHNGNTNSNPSLKSRVTLSLDTSKNQFSLKLRSVTAADTAVYYCAFGYSDYEYNWFDPWGQGTLVTVSS VL: EIVLTQSPATLSLSPGERATLSCRASQSISSYLAWYQQKPGQAPRLLIYDASNRATGIPARFSGSGSGTDFTLTISSLEPEDFAVYYCQQRSNWPLTFGQGTNLEIK , no commentary.
22.1

Return value of percentage of Lag3 positive cells for input aLAG3(0414) (antibody, V domains shown, also called aLAG3 (414)) VH: EVQLLESGGGLVQPGGSLRLSCAASGFIFDDYTMNWVRQAPGKGLEWVAVISWDGGGTYYTDSVKGRFTISRDDFKNTLYLQMNSLRAEDTAVYYCAKGLTDTTLYGSDYWGQGTLVTVSS VL: DIQMTQSPSSLSASVGDRVTITCRASQSISSYLNWYQQKPGKAPKLLIYAASTLQSGVPSRFSGSGSGTDFTLTISSLQPEDFATYYCQQTYSSPLTFGGGTKVEIK , no commentary.
43

Return value of percentage of Lag3 positive cells for input aLAG3(0416) (antibody, V domains shown, also called aLAG3 (416)) VH: EVQLVESGGGLVQPGGSLRLACAASGFTFSDYAMSWVRQAPGKGLEWVSGIDNSGYYTYYTDSVKGRFTISRDDVKNTLYLQMNSLRAEDTAVYLCTKTHSGLIVNDAFDIWGQGTMVTVSS VL: DIQLTQSPSSLSASVGDRVTITCRASQSISSYLNWYQQKPGKAPKLLIYDASSLESGVPSRFSGSGSGTDATLTISSLQPEDFATYYCQQSYSTPLTFGGGTKVEIK , no commentary.
38.9

Return value of percentage of Lag3 positive cells for input humanized BAP050 (LAG525) (antibody, V domains shown) VH: QIQLVQSGPELKKPGETVKISCKASGFTLTNYGMNWVRQTPGKGLKWMGWINTDTGEPTYADDFKGRFAFSLETSASTASLQINNLKNADTATYFCARNPPYYYGTNNAEAMDYWGQGTTVTVSS VL: DIQMTQTTSSLSASLGDRVTISCSSSQDISNYLMWYQQKPDGTVKVLIYYTSTLHLGVPSRFSGSGSGTDYSLTISNLELEDIATYYCQQYYNLPWTFGQGTKVEIK , no commentary.
50.7
